This collection of values is drawn from paper PMC5712521.

- ASSAY NAME: in vivo
- Parameters: species or system NSG mice
- MEASUREMENT PARAMETERS: NSG, mouse, po, 20 mg/kg
TEST READOUT: Cmax (µM)

SMI	NUMERIC READOUT
CC(C)CCC[C@@H](C)[C@H]1CC[C@H]2[C@@H]3C[C@@H](NCCc4cnc[nH]4)[C@@]4(O)C[C@@H](O)CC[C@]4(C)[C@H]3CC[C@]12C	5.05

###

- Test system: B16F10 cells
- ASSAY NAME: RT-qPCR of LXR-responsive genes
- Format: cell-based, mouse
- MEASUREMENT PARAMETERS: B16F10, siLXRβ, 8 h; 2.5 µM DDA, 10 µM 22(R)HC, 1 µM GW, 100 nM TO; vs vehicle
The reader will find reported ABCA1 mRNA values listed item by item below.
TEST READOUT: ABCA1 mRNA (fold)

COMPOUND	NUMERIC READOUT
CC(C)CCC[C@@H](C)[C@H]1CC[C@H]2[C@@H]3C[C@@H](NCCc4cnc[nH]4)[C@@]4(O)C[C@@H](O)CC[C@]4(C)[C@H]3CC[C@]12C [DDA, Dendrogenin A]	1.2
CC(C)CC[C@@H](O)[C@@H](C)[C@H]1CC[C@H]2[C@@H]3CC=C4C[C@@H](O)CC[C@]4(C)[C@H]3CC[C@]12C [22(R)HC, 22(R)-hydroxycholesterol]	4.2
O=C(O)Cc1cccc(OCCCN(Cc2cccc(C(F)(F)F)c2Cl)CC(c2ccccc2)c2ccccc2)c1 [GW, GW3965]	2.6
O=S(=O)(c1ccccc1)N(CC(F)(F)F)c1ccc(C(O)(C(F)(F)F)C(F)(F)F)cc1 [TO, TO901317]	2.0
